# Study Target: SIRT1 (Homo sapiens)
# Run Description: Trp mass spectrometry assay of SIRT1 activity
# Format: biochemical
# Measurement Conditions: percent maximum fold activation of SIRT1; Trp peptide substrate; read-out: Trp % Fold Act
Readout Name: Emax

GET /values?readout=Emax&item= Cc1nn2ccc(N3CCC[C@@H]3C(F)(F)F)nc2c1C(=O)Nc1cnccn1
≥ 350%

GET /values?readout=Emax&item= Cc1nc2ccc(N3CCC[C@H]3C(F)(F)F)nn2c1C(=O)Nc1cccnn1
≥ 350%

GET /values?readout=Emax&item= Cc1nn2ccc(N3CCC[C@@H]3C(F)(F)F)nc2c1C(=O)Nc1ccccn1
≥ 350%

GET /values?readout=Emax&item= CC1CCCN1c1ccn2ncc(C(=O)Nc3ccncn3)c2n1 (centres unmarked)
< 350%

GET /values?readout=Emax&item= O=C(Nc1cccnc1)c1cnn2ccc(N3CCC[C@H]3C(F)(F)F)nc12
≥ 350%

GET /values?readout=Emax&item= O=C(Nc1ccccn1)c1cnc2ccc(-c3ccccc3C(F)F)nn12
< 350%

GET /values?readout=Emax&item= O=C(Nc1cccc(N2CCOCC2)n1)c1cnc2ccc(-c3ccc(F)c(F)c3F)nn12
< 350%

GET /values?readout=Emax&item= Cc1nn2ccc(N3CCC[C@@H]3C(F)(F)F)nc2c1C(=O)Nc1cccnn1
≥ 350%

* * *

# Study Target: SIRT1 (Homo sapiens, UniProt Q96EB6)
# Sequence (Q96EB6 whole entry): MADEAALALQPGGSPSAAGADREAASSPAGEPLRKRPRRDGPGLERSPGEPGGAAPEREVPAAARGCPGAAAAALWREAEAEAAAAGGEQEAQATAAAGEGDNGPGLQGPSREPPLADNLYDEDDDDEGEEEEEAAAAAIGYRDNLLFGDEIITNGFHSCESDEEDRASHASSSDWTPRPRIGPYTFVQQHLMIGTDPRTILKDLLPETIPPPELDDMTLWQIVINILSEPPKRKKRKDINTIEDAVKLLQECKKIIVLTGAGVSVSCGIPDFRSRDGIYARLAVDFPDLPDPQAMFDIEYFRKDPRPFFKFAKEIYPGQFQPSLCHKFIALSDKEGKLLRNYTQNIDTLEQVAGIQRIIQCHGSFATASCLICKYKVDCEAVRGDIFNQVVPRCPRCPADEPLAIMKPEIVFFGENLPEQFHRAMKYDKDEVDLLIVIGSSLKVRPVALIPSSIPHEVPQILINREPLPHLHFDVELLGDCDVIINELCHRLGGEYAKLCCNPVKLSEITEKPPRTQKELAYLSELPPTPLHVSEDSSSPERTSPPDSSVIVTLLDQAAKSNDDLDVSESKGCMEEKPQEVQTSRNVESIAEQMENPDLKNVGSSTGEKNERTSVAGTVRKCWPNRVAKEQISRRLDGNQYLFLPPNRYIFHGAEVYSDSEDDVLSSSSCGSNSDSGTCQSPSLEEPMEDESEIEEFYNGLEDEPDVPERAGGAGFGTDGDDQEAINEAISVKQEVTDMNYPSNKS
# Run Description: Trp mass spectrometry assay of SIRT1 activity
# Format: biochemical
# Measurement Conditions: Trp assay; concentration giving 150% activation of SIRT1
Readout Name: Trp EC1.5 (μM)

Molecule	Readout Name	Recorded Result
Cc1c(-c2ccccc2C(F)(F)F)nn2c(C(=O)Nc3cccc(OC[C@H](O)CO)n3)cnc2c1C [Compound 387]	Trp EC1.5 (μM)	A (EC1.5<1 μM)
CN(C)[C@H]1CCN(c2ccc3ncc(C(=O)Nc4cnccn4)n3n2)C1 [Compound 873]	Trp EC1.5 (μM)	B (EC1.5 1-25 μM)
CO[C@H]1CCN(c2ccc3ncc(C(=O)Nc4ccccn4)n3n2)C1 [Compound 933]	Trp EC1.5 (μM)	B (EC1.5 1-25 μM)
COc1cc(NC(=O)c2c(C)nn3ccc(-c4ccccc4C(F)(F)F)nc23)ncn1 [Compound 778]	Trp EC1.5 (μM)	A (EC1.5<1 μM)

* * *

# Study Target: UniProt:Q96EB6
# Run Description: Trp mass spectrometry assay of SIRT1 activity
# Format: biochemical
# Measurement Conditions: Trp assay; percent maximum fold activation; read-out: Trp % Fold Act
Readout Name: Emax

Find the measured Emax: item O=C(Nc1cnn2ccc(-c3ccccc3OC(F)(F)F)nc12)c1cscn1 , target or system UniProt:Q96EB6.
< 350%

Find the measured Emax: item O=C(Nc1cnc2ccc(-c3ccccc3F)nn12)c1ccccn1 , target or system UniProt:Q96EB6.
< 350%

Find the measured Emax: item O=C(Nc1cccnn1)c1cnc2ccc(N3CCCC3C(F)(F)F)nn12 (centres unmarked) , target or system UniProt:Q96EB6.
≥ 350%

Find the measured Emax: item Cc1cccc(NC(=O)c2cnc3ccc(-c4cccc(OC[C@H](O)CO)c4)nn23)n1 , target or system UniProt:Q96EB6.
≥ 350%

Find the measured Emax: item O=C(Nc1cncc(F)c1)c1cnc2ccc(N3CCC(C(F)(F)F)C3)nn12 (centres unmarked) , target or system UniProt:Q96EB6.
≥ 350%

Find the measured Emax: item O=C(Nc1ccncn1)c1cnc2ccc(N3CC[C@H](F)C3)nn12 , target or system UniProt:Q96EB6.
< 350%

Find the measured Emax: item O=C(Nc1cccnn1)c1cnc2ccc(N3CC(F)(F)C3)nn12 , target or system UniProt:Q96EB6.
< 350%

Find the measured Emax: item O=C(Nc1cccnc1)c1cnc2ccc(N3CC[C@H](F)C3)nn12 , target or system UniProt:Q96EB6.
< 350%

Find the measured Emax: item Cc1nc2c(OC[C@H](O)CO)cc(-c3ccccc3C(F)(F)F)nn2c1C(=O)Nc1ccncc1 , target or system UniProt:Q96EB6.
≥ 350%

Find the measured Emax: item O=C(Nc1cccnn1)c1cnn2ccc(-c3ccccc3OC(F)(F)F)nc12 , target or system UniProt:Q96EB6.
≥ 350%

Find the measured Emax: item Cc1cccc(-c2ccc3nc(C)c(C(=O)Nc4cccnn4)n3n2)c1 , target or system UniProt:Q96EB6.
< 350%

Find the measured Emax: item O=C(Nc1ncc(F)cc1F)c1cnn2ccc(-c3ccccc3C(F)(F)F)nc12 , target or system UniProt:Q96EB6.
< 350%

Find the measured Emax: item O=C(Nc1ccnc(OCC(F)(F)F)c1)c1cnc2ccc(-c3ccccc3C(F)(F)F)nn12 , target or system UniProt:Q96EB6.
< 350%

Find the measured Emax: item Cc1ccc(NC(=O)c2cnn3ccc(-c4ccccc4OC(F)(F)F)nc23)nn1 , target or system UniProt:Q96EB6.
< 350%

Find the measured Emax: item CC1(COc2ccnc(NC(=O)c3cnc4ccc(-c5ccccc5C(F)(F)F)nn34)n2)COC1 , target or system UniProt:Q96EB6.
≥ 350%

Find the measured Emax: item CN1CCN(c2ccc3ncc(C(=O)Nc4cccnn4)n3n2)CC1 , target or system UniProt:Q96EB6.
< 350%

Find the measured Emax: item Cc1cnc(NC(=O)c2cnn3ccc(-c4ccccc4C(F)(F)F)nc23)c(C)n1 , target or system UniProt:Q96EB6.
< 350%

* * *

# Study Target: UniProt:Q96EB6
# Run Description: Trp mass spectrometry assay of SIRT1 activity
# Type: biochemical
# Measurement Conditions: Trp assay; concentration giving 150% activation of SIRT1
Readout Name: Trp EC1.5 (μM)

Solved cases below.
Molecule	Study Target	Recorded Result
Cc1nc2ccc(-c3ccccc3C(F)(F)F)nn2c1NC(=O)c1ccccn1	UniProt:Q96EB6	C (EC1.5>25 μM)
O=C(Nc1cnc2ccc(-c3ccccc3C(F)(F)F)nn12)c1ccnc(CN2CCCC2)c1	UniProt:Q96EB6	C (EC1.5>25 μM)
Cc1cc(C)nc(NC(=O)c2c(C)nc3c(OC[C@H](O)CO)cc(-c4ccccc4C(F)(F)F)nn23)c1	UniProt:Q96EB6	A (EC1.5<1 μM)
Cc1cncc(NC(=O)c2cnn3ccc(-c4ccccc4C(F)(F)F)nc23)n1	UniProt:Q96EB6	B (EC1.5 1-25 μM)

Next:
GET /values?readout=Trp EC1.5 (μM)&item= Cc1cc(-c2ccccc2C(F)(F)F)nn2c(C(=O)Nc3nccc(N4CCCC4)n3)cnc12
A (EC1.5<1 μM)

* * *

# Study Target: SIRT1 (Homo sapiens, UniProt Q96EB6)
# Run Description: Trp mass spectrometry assay of SIRT1 activity
# Type: biochemical
# Measurement Conditions: Trp assay; percent maximum fold activation; read-out: Trp % Fold Act
I'd appreciate it if you could supply Emax values for the items below.

GET /values?readout=Emax&item= O=C(Nc1cnn2ccc(-c3ccccc3C(F)(F)F)nc12)c1ncc(F)cc1F
< 350%

GET /values?readout=Emax&item= O=C(Nc1cnn2ccc(-c3ccccc3OC(F)(F)F)nc12)c1ncc(F)cc1F
< 350%

GET /values?readout=Emax&item= Cc1cncc(NC(=O)c2cnc3ccc(N4CCCC(C(F)(F)F)C4)nn23)c1 (stereo not shown)
≥ 350%

GET /values?readout=Emax&item= Cc1ccncc1NC(=O)c1cnn2ccc(-c3ccccc3C(F)(F)F)nc12
< 350%

* * *

# Study Target: SIRT1 (Homo sapiens)
# Run Description: TAMRA based mass spectrometry assay of SIRT1 activity
# Type: biochemical
# Measurement Conditions: TAMRA assay; percent maximum fold activation; read-out: TAMRA % Fold Act
I'd appreciate it if you could supply Emax values for the items below.

Find the measured Emax: item Cc1cccc(NC(=O)c2cnc3ccc(-c4ccccc4OCC(O)CO)nn23)n1 (centres unmarked) , target or system SIRT1 (Homo sapiens).
≥ 350%

Find the measured Emax: item Cc1cccc(NC(=O)c2c(C)nc3ccc(-c4ccccc4OC[C@H](O)CO)nn23)n1 , target or system SIRT1 (Homo sapiens).
≥ 350%

Find the measured Emax: item Cc1nc2ccc(-c3ccccc3Cl)nn2c1NC(=O)c1cscn1 , target or system SIRT1 (Homo sapiens).
< 350%

Find the measured Emax: item Cc1nccc(C(=O)Nc2cnn3ccc(-c4ccccc4C(F)(F)F)nc23)n1 , target or system SIRT1 (Homo sapiens).
≥ 350%

Find the measured Emax: item CCOc1ccc(NC(=O)c2cnn3ccc(-c4ccccc4C(F)(F)F)nc23)nn1 , target or system SIRT1 (Homo sapiens).
≥ 350%

Find the measured Emax: item COc1ccc(NC(=O)c2c(C)nc3ccc(-c4cccc(F)c4)nn23)nn1 , target or system SIRT1 (Homo sapiens).
< 350%

Find the measured Emax: item O=C(Nc1ccccn1)c1cnc2ccc(-c3ccccc3OCC(O)CO)nn12 (centres unmarked) , target or system SIRT1 (Homo sapiens).
≥ 350%

Find the measured Emax: item O=C(Nc1cncc(F)c1)c1cnn2ccc(-c3ccccc3OC(F)(F)F)nc12 , target or system SIRT1 (Homo sapiens).
≥ 350%
